Assign pIC50 to each entry below.
tested on: PANC-1; test: Preferential cytotoxicity against human PANC-1 cells in DMEM measured after 24 hrs by WST-8 cell counting analysis; type: functional, cell-based; conditions: PANC-1, 24 h
Answers are plain numbers, as −log10 of the molar value.

Some entries whose results are on file:
compound: COc1cc(O)c(C(=O)[C@H]2CC=C(CCC=C(C)C)C[C@@H]2c2c(F)cccc2F)c(O)c1 (relative stereo)
target_desc: PANC-1
observed_value: 4.71

compound: COc1cccc(O)c1C(=O)[C@H]1CC=C(CCC=C(C)C)C[C@@H]1c1ccccc1
target_desc: PANC-1
observed_value: 4.47

compound: CC(C)=CCCC1=CC[C@H](C(=O)c2c(O)cccc2O)[C@@H](c2cccc(F)c2F)C1 (relative stereo)
target_desc: PANC-1
observed_value: 5.04

compound: CC(C)=CCCC1=CC[C@H](C(=O)c2c(O)cccc2O)[C@@H](c2ccc(Cl)cc2)C1 (relative stereo)
target_desc: PANC-1
observed_value: 4.07

Ask: Lab note: need pIC50 with PANC-1 for entry COc1cc(O)c(C(=O)[C@H]2CC=C(CCC=C(C)C)C[C@@H]2c2ccc(F)c(F)c2)c(O)c1 (relative stereo) , please look it up.
Reply: 4.81
